Collected Kd values appear next to each entry.
TARGET_UNDER_TEST: eOD-GT8 (monomeric ligand) (Human immunodeficiency virus 1, …)

BINDER	Kd, pM
g5-D78-21_CLK19 (antibody, V domains shown) VH: QVQLVQSGAEVKKPGASVKVSCKTSGYTFTGYFLHWVRQAPGQGLEWMGWINPNSGGINYAQKFQGRVTMTRDTSINTAYMELSRLRSDDTAVYYCTPVLTNFRWPFAFWGQGTLVTVSS VL: DIQMTQSPSSLSASVGDRVTITCQASQDIKNYLNWYQQKPGTAPKLLIYDTSNLETGVPSRFSGSGSGTDFTFTISSLQPEDIATYYCQQYETFGPGTKVDIK	290
g5-D78-15_CLK19 (antibody, V domains shown) VH: QVQLVQSGAEVKKPGASVKVSCKASGYIFTDYNMHWVRQAPGQGLEWMGWINPSFGGRNIVQKFQGRVTMTRDTSISTAYMELSGLRSDDTAVYFCTPVLAPFRWPFVYWGQGTLVTVSS VL: DIQMTQSPSSLSASVGDRVTITCQASQDINYLNWYQQKPGKAPKLLIYDASNLETGVPSRFSGSGSGTDFSFTISSLQPEDIATYYCQQYAAFGPGTKVDIK	920
g28-D78-17_CLK09 (antibody, V domains shown) VH: QVQLVQSGAEVKKPGASVRVSCKASGYTFTGNYIHWVRQAPGQGLEWMGWLNPINGGTNHAQKFQGRVTMTRDTSISTAYMELSRLRSDDTTVYYCARVGGLWLGKGWTFDIWGQGTMVTVSS VL: DIQMTQSPSSLSASVGDRVTITCQASQDISILNWYQQKPGKAPKLLIYGASNLETGVPSRFSGSGSGTDFTFTISSLQPEDIATYYCQQYEFFGGGTKVEIK	250
GT8-D36-19_CLK09 (antibody, V domains shown) VH: QVQLVQSGAEVRKPGASVKVSCKASGYTFTGYYIHWVRQAPGQGLEWMGWINPNSGGTNYEQKFQGRVTMTRDTSISTAYLELSRLRSDDTAVYYCARVEGLWTFDIWGQGTMVTVSS VL: DIQMTQSPSSLSASVGDRVTITCQASQDISNYLNWYQQKPGKAPKLLIYDASNLETGVPSRFSGSGSGTDFTFTISSLQSEDIATYYCQQYEFFGGGTKVEIK	958
GT8-D36-18_CLK21 (antibody, V domains shown) VH: QVQLVQSGAEVKKPGASVKVSCKTSGYTFTDYYMHWVRQAPGQGLEWMGWINPNSGGTNYAQRFQGRVTMTRDTSISTAYMELSRLRSDDTAVYYCASALRDSQPWWFDPWGQGTLVTVSS VL: DIQMTQSPSTLSASVGDRVTITCRASQSISSWLAWYQQKPGKAPKLLIYKASSLESGVPSRFSGSGSGTEFTLTISSLQPDDFATYYCQQYDTFGGGTKVEIK	2630

These data points were gathered from paper PMC11488661.
